Assay: chemical genetic growth profiling, strain panel (AID 1159580);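 further: tested at 20 µM; growth read once vehicle control cultures reached saturation at 30 °C; 1 = growth at the plate median or of vehicle wells; lower values mean less growth of the strain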
Conditions: S. cerevisiae deletion strains, growth OD, locus YPL106C, strain sse1, stronger effect = lower value
About 2,000 (36%) of roughly 5,500 compounds were called active. Roughly 18% stayed inconclusive and do not appear here. Some of the results follow.
Answer each item with its documented normalized growth.

So what's the measured normalized growth for this one? C[n+]1c2cc(N)ccc2cc2ccc(N)cc21 0.695 (active)

Continue with CN1CC(=O)N=C1N 1.02 (inactive)

Continue with O=C(O)c1cc2cc(F)ccc2[nH]1 0.938 (inactive)

Continue with COc1cc2nc(N(C)CCCNC(=O)C3CCCO3)nc(N)c2cc1OC (stereo not drawn) 0.991 (inactive)

Continue with COC(=O)C[C@H]1C2(C)CC34OC5(C)O[C@@]6([C@H](OC(C)=O)C(OC(C)=O)[C@]7(C)C(/C(=C(/O)C(C)C)C(=O)O[C@H]7c7ccoc7)[C@@]6(O5)[C@H](OC(C)=O)[C@@]3(O)C2OC(=O)C(C)C)[C@]14C (stereo partly drawn) 1.06 (inactive)

Continue with Cc1ccc(S(=O)(=O)NC(=O)NN2CCCCCC2)cc1 0.957 (inactive)

Continue with CN(C)CCN(Cc1cccs1)c1ccccn1 1 (inactive)

Continue with O=C(NC(=O)c1ccccc1Cl)Nc1ccc(OC(F)(F)F)cc1 1.02 (inactive)

Continue with CCOC(=O)n1ccn(C)c1=S 1.04 (inactive)

Continue with CN1C2C[C@H](OC(=O)[C@H](CO)c3ccccc3)C[C@H]1[C@@H](O)C2 1.01 (inactive)

Continue with CC(=O)Oc1cc(OC(C)=O)c2c(c1)O[C@H](c1ccc(OC(C)=O)c(OC(C)=O)c1)[C@@H](OC(C)=O)C2 0.996 (inactive)

Continue with COC(=O)[C@@H]1OC(=O)C2OC23[C@@]1(C)CCC1[C@]2(C)C(C[C@H](O)[C@]13C)C(C)(C)[C@H](OC(C)=O)C[C@@H]2OC(C)=O (stereo partly drawn) 1.04 (inactive)

Continue with Nc1ncn[nH]1 1.05 (inactive)

Continue with O=C1CCC(N2C(=O)c3ccccc3C2=O)C(=O)N1 (stereo not drawn) 1.03 (inactive)

Continue with CCC(C)C(=O)O[C@@H]1C[C@@]2(C)[C@H](c3ccoc3)OC(=O)CC23OC2(C)OC34[C@H](OC(=O)C(C)C)[C@@]3(O)[C@@H](OC(=O)C5(C)OC5C)[C@@]5(C)C[C@]3(O)[C@@](C)([C@H]5CC(=O)OC)C14O2 (stereo partly drawn) 1.06 (inactive)

Continue with CC[C@@]1(O)C[C@H](O[C@H]2C[C@H](N(C)C)[C@H](O)[C@H](C)O2)c2c(cc3c(c2O)C(=O)c2c(O)ccc(O)c2C3=O)[C@H]1C(=O)OC 0.909 (inactive)

Continue with CCCCCCCCCCC[C@@H](C[C@H]1OC(=O)[C@H]1CCCCCC)OC(=O)[C@@H](CC(C)C)NC=O 1.05 (inactive)

Continue with CC[C@@]1(O)C[C@H](O)c2c(cc3c(c2O)C(=O)c2c(O)ccc(O)c2C3=O)[C@H]1C(=O)OC 1.21 [resistant] (active)

====

Assay: chemical genetic growth profiling, strain panel (AID 1159580);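 further: tested at 20 µM; growth read once vehicle control cultures reached saturation at 30 °C; 1 = growth at the plate median or of vehicle wells; lower values mean less growth of the strain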
Conditions: S. cerevisiae deletion strains, growth OD, locus YPL106C, strain sse1, stronger effect = lower value
About 2,000 (36%) of roughly 5,500 compounds were called active. Another 18% or so got no clear call; they are omitted. The list shows a part of the results.
Answer each item with its documented normalized growth.
// no unit, no text: just the number

So what's the measured normalized growth for this one? COc1ccc(-c2coc3cc(O)ccc3c2=O)c(O)c1O 0.813

Continue with OCC(O)CN1CCN(c2ccccc2)CC1 (configuration not stated) 0.961

Continue with COc1ccc(C(=O)CC(=O)O)c2c1C=CC(C)(C)O2 0.987

Continue with CC#CC1(O)CCC2C3CCC4=CC(=O)CCC4=C3C(c3ccc(N(C)C)cc3)CC21C (configuration not stated) 0.964

Continue with COc1cc(CNC(=O)CCCC/C=C/C(C)C)ccc1O 0.995

Continue with CNCCC(Oc1ccc(C(F)(F)F)cc1)c1ccccc1 (configuration not stated) 0.971

Continue with O=c1c(-c2ccc(O)cc2)coc2cc(O)ccc12 0.935

Continue with Cn1c(=O)c2c(ncn2CC(O)CO)n(C)c1=O (configuration not stated) 1

Continue with COc1ccc(-c2coc3cc(O)ccc3c2=O)c(OC)c1O 0.966

Continue with CC1(C)S[C@@H]2[C@H](NC(=O)[C@H](N)c3ccccc3)C(=O)N2[C@H]1C(=O)O 0.976

Continue with c1ccc2c(c1)sc1ccccc12 0.778

Continue with C=CC[C@]1(O)CCC2C3CCC4=CC(=O)CCC4=C3C=C[C@@]21C (some centres not stated) 1.04
